Test system: PC-9
Assay: Cell proliferation assay, PC-9 cells (CellTiter-Glo, 72 hours)
Type: cell-based
Details: Homo sapiens, PC-9, 72 h, PC9 cells, CellTiter-Glo, read-out: PC9 GI50
recorded_metric: GI50 (nM)

// below: answered compounds
> print(dat)
                                   compound  recorded.metric  units.symbol  observed.result
1  C[C@@H]1CCCOc2c(cnn2C)-c2cc(cn(C)c2=O)C(=O)Nc2nc3ccc(N4CCC(N(C)C)C(F)C4)cc3n2C1 (some centres unmarked)             GI50            nM              6.2
2  CCn1ncc2c1OCCC[C@@H](C)Cn1c(nc3ccc(N4CCN(C)CC4)cc31)NC(=O)c1cc-2c(=O)n(C)c1             GI50            nM               24
3  C[C@@H]1CCCOc2c(cnn2C)-c2cc(cn(C)c2=O)C(=O)Nc2nc3ccc(N4CC5(CN(C)C5)C4)cc3n2C1             GI50            nM               17
4  C[C@@H]1CCCOc2c(cnn2C)-c2cc(cn(C)c2=O)C(=O)Nc2nc3ccc(N4CCC(N5CCN(C)CC5)C4)cc3n2C1 (some centres unmarked)             GI50            nM              4.8
5  C[C@@H]1CCCOc2c(cnn2C)-c2cc(cn(C)c2=O)C(=O)Nc2nc3ccc(N4CCN(C)CC4)cc3n2C1             GI50            nM               12

P = Cn1ncc2c1OCCN1CC3CCC(CC3)(C1)n1c(nc3ccccc31)NC(=O)c1cc-2c(=O)n(C)c1
Q = CN1CCN(c2ccc3nc4n(c3c2)CC2(CCCOc3c(cnn3C)-c3cc(cn(C)c3=O)C(=O)N4)CC2)CC1
Between P and Q , which one shows the smaller GI50 number? In your reply, give the label of the chosen option. P
